Reference source: ChEMBL document CHEMBL3612028

endpointLabel: Ki

**Q:** Give recorded Ki with Mu opioid receptor-like OR2 (Danio rerio) for the following compound: O=C(Oc1ccccc1)[C@@H]1[C@@H]2CCC[C@H]1NCC2
Sequence (B8JHS2 whole entry): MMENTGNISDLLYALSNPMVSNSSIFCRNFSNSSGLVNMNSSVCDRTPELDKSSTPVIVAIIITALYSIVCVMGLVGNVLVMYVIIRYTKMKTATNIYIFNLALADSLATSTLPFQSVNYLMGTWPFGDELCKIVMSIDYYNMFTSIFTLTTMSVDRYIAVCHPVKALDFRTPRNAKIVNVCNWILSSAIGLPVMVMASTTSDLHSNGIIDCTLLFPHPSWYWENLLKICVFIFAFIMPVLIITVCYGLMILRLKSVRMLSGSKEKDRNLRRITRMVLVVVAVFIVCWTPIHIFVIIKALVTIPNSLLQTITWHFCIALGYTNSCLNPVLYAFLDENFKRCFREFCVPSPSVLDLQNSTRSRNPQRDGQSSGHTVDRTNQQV
**A:** 32 µM

**Q:** Give the reported Ki for COC(=O)[C@@H]1[C@@H]2CCC[C@H]1NCC2 (system: Mu opioid receptor-like OR2 (Danio rerio)).
**A:** 35.3 µM

**Q:** Look up Ki with Mu opioid receptor-like OR2 (Danio rerio) for this compound: O=C(Oc1cccc(O)c1)[C@@H]1[C@@H]2CCC[C@H]1NCC2
**A:** 9.52 µM

**Q:** Give recorded Ki with Mu opioid receptor-like OR2 (Danio rerio) for the following compound: COC(=O)[C@@H]1[C@@H]2CCC[C@H]1N(CCc1ccccc1)CC2
**A:** 8.24 µM
